Test system: Acanthamoeba castellanii trophozoites (strain ATCC 30010)
experimental details: Ac trophozoite growth inhibition and minimum amoebicidal concentration (trypan blue exclusion)
Type: cell-based
condition: Acanthamoeba castellanii, ATCC30010; Ac trophozoites, 48 h incubation
Exercise: for every item that follows, state its recorded pIC50.
Friendly reminder that pIC50 comes from taking -log10 of the concentration in mol/L.

# pIC50 lookup, item `C[C@@H](c1ncncc1F)[C@](O)(Cn1cncn1)c1ccc(F)cc1F`
6.85

# pIC50 lookup, item CC(CCC=C1CC1)C1CC[C@@]2(C)C3=C(CCC12C)C1(C)CCC(O)C(C)(C)C1CC3 (some centres unmarked) [DHL, 26,27-dehydrolanosterol]
5.22

====

measured target: Ac24-SMT (sterol 24-methyltransferase, SMT1) (Acanthamoeba castellanii)
Sequence (L8GNG7 entry or part of it): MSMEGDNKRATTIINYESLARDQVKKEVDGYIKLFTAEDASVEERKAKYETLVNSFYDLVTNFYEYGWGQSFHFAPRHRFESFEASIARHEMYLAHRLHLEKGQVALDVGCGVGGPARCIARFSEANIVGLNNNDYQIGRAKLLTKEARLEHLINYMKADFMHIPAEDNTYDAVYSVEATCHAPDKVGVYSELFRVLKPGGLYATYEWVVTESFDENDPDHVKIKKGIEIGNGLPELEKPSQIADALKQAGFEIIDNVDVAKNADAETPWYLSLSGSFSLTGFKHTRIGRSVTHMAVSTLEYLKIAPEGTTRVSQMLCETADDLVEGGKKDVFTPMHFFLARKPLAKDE
experimental details: Inhibition of recombinant Ac24-SMT assayed with native substrate cycloartenol and [methyl-3H3]SAM
condition: read-out: Ki against 24-SMT (competitive inhibitor); assayed with natural substrate
Description: The SMT constructs were transformed into competent BL21(DE3) cells and transformants selected against 100 µg/ml ampicillin. […] Cells were harvested 2 and 4 h after induction and an equal number of cells (as calculated by OD @600 nm) from induced (+) and un-induced (−) cultures were boiled with 1X Laemmli’s buffer and analyzed by SDS-PAGE (12%). […] Total protein concentrations were determined by Bradford dye-binding procedure with bovine γ-globulin as standard. […]
recorded endpoint: Ki (µM)
Number only, in µM; omit the unit.

# Ki lookup, item CC(CCC=C1CC1)C1CC[C@@]2(C)C3=C(CCC12C)C1(C)CCC(O)C(C)(C)C1CC3 (stereo partly shown) [DHL, 26,27-dehydrolanosterol]
16
